target_of_assay: Receptor-interacting serine/threonine-protein kinase 3 (Homo sapiens)
Sequence (Q9Y572 whole entry, the tested form may be a part): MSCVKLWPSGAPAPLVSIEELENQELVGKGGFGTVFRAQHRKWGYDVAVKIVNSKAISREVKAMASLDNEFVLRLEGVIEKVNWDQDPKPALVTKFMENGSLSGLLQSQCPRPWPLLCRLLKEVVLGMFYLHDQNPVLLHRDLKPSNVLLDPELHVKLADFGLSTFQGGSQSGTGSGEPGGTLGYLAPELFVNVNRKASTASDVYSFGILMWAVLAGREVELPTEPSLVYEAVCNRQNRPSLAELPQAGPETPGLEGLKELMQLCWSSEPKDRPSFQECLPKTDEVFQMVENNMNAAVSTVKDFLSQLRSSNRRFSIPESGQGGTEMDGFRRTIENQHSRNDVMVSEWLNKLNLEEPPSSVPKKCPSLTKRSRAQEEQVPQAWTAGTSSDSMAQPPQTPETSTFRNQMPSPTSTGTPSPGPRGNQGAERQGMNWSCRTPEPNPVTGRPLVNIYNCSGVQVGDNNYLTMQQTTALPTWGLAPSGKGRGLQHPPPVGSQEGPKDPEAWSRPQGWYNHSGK
experimental_details: Binding affinity to recombinant human wild type partial length RIPK3 (M1 to Q307 residues) expressed in bacterial expression system by KINOMEscan TM assay
measurement_name: Kd

Known Kd results, listed for orientation:
compound="O=C1CCC(C(=O)Nc2nc3cc(Oc4ccc(F)c(NC(=O)Cc5cccc(OC(F)(F)F)c5)c4)c(F)cc3s2)C1 (stereo not drawn)" obs_value="> 5 µM"
compound=O=C1CC(C(=O)Nc2nc3cc(Oc4ccc(F)c(NC(=O)Cc5cccc(OC(F)(F)F)c5)c4)c(F)cc3s2)C1 obs_value="> 5 µM"
compound="CC1(C)CC1C(=O)Nc1nc2cc(Oc3ccc(F)c(NC(=O)Cc4cccc(OC(F)(F)F)c4)c3)c(F)cc2s1 (stereo not drawn)" obs_value="> 5 µM"
compound=O=C(Cc1cccc(C(F)(F)F)c1)Nc1cc(Oc2cc3nc(NC(=O)C4CC4)sc3cc2F)ccc1F obs_value="0.077 µM"
compound=O=C1CCC(C(=O)Nc2nc3cc(Oc4ccc(F)c(NC(=O)Cc5cccc(OC(F)(F)F)c5)c4)c(F)cc3s2)CC1 obs_value="> 5 µM"

Tell me its Kd given O=C(Cc1cccc(OC(F)(F)F)c1)Nc1cc(Oc2cc3nc(NC(=O)C4CC4F)sc3cc2F)ccc1F (stereo not drawn) as the entry.
> 5 µM

Tell me its Kd given O=C(Cc1cccc(OC(F)(F)F)c1)Nc1cc(Oc2cc3nc(NC(=O)C4CCOC4)sc3cc2F)ccc1F (stereo not drawn) as the entry.
> 5 µM

Tell me its Kd given `O=C(Cc1cccc(OC(F)(F)F)c1)Nc1cc(Oc2cc3nc(NC(=O)C4CC4)sc3cc2F)ccc1F` as the entry.
0.12 µM

###

experimental_details: Cytotoxicity against human HT-29 cells assessed as reduction in cell viability by celltiter-glo luminescent cell viability assay
Type: toxicity, cell-based
measurement_name: CC50

Known CC50 results, listed for orientation:
compound="CN1C(=O)[C@@H](NC(=O)c2nnc(Cc3ccccc3)[nH]2)COc2ccccc21 [GSK2982772]" obs_value="> 50 µM"
compound=O=C(Cc1cccc(C(F)(F)F)c1)Nc1cc(Oc2cc3nc(NC(=O)C4CC4)sc3cc2F)ccc1F obs_value="36.5 µM"

Tell me its CC50 given O=C(Cc1cccc(OC(F)(F)F)c1)Nc1cc(Oc2cc3nc(NC(=O)C4CCOC4)sc3cc2F)ccc1F (centres undefined) as the entry.
> 50 µM

Tell me its CC50 given `O=C1CC(C(=O)Nc2nc3cc(Oc4ccc(F)c(NC(=O)Cc5cccc(OC(F)(F)F)c5)c4)c(F)cc3s2)C1` as the entry.
> 50 µM

###

target_of_assay: Receptor-interacting serine/threonine-protein kinase 1 (Homo sapiens, UniProt Q13546)
Sequence (Q13546 whole entry, the tested form may be a part): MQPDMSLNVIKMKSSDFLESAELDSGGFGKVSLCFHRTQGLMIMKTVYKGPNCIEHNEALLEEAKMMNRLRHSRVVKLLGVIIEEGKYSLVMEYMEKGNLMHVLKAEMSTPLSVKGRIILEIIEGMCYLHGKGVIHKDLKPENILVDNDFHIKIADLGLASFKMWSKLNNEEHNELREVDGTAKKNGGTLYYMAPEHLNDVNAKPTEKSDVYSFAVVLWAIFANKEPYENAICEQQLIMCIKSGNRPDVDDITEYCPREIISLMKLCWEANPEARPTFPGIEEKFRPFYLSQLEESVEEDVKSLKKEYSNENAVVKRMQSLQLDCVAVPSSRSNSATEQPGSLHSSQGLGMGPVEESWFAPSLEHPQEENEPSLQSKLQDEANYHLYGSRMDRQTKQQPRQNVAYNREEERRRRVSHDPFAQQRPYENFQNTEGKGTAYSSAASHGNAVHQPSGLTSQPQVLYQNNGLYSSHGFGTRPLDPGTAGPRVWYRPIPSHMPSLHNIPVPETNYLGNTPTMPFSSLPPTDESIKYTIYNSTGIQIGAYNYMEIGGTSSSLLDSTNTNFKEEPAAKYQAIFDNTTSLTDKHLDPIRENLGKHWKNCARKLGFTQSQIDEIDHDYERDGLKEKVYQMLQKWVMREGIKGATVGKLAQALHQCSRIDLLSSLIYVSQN
experimental_details: Binding affinity to recombinant human wild type partial length RIPK1 (M1 to K305 residues) expressed in bacterial expression system by KINOMEscan TM assay
measurement_name: Kd (nM)

Known Kd results, listed for orientation:
compound="CC1(C)CC1C(=O)Nc1nc2cc(Oc3ccc(F)c(NC(=O)Cc4cccc(OC(F)(F)F)c4)c3)c(F)cc2s1 (stereo not drawn)" obs_value=25
compound="O=C(Cc1cccc(OC(F)(F)F)c1)Nc1cc(Oc2cc3nc(NC(=O)C4CC4F)sc3cc2F)ccc1F (stereo not drawn)" obs_value=18
compound=O=C1CC(C(=O)Nc2nc3cc(Oc4ccc(F)c(NC(=O)Cc5cccc(OC(F)(F)F)c5)c4)c(F)cc3s2)C1 obs_value=8.6

1. O=C1CCC(C(=O)Nc2nc3cc(Oc4ccc(F)c(NC(=O)Cc5cccc(OC(F)(F)F)c5)c4)c(F)cc3s2)C1 (stereo not drawn)
2. O=C(Cc1cccc(OC(F)(F)F)c1)Nc1cc(Oc2cc3nc(NC(=O)C4CC4)sc3cc2F)ccc1F
3. O=C(Cc1cccc(C(F)(F)F)c1)Nc1cc(Oc2cc3nc(NC(=O)C4CC4)sc3cc2F)ccc1F
Put the items in order so that reported Kd rises from first to last. Write the labels, ordered according to the request.
1, 2, 3
(1: 9.6 nM, 2: 49 nM, 3: 97 nM)

I. O=C(Cc1cccc(OC(F)(F)F)c1)Nc1cc(Oc2cc3nc(NC(=O)C4CCOC4)sc3cc2F)ccc1F (stereo not drawn)
II. O=C1CCC(C(=O)Nc2nc3cc(Oc4ccc(F)c(NC(=O)Cc5cccc(OC(F)(F)F)c5)c4)c(F)cc3s2)CC1
Between I and II , whose measured Kd reads higher? Record your answer as the label of the chosen record.
I

###

Test system: HT-29
experimental_details: Anti-necroptotic activity in TSZ induced human HT-29 cells assessed as increase in cell viability pretreated with compound followed by TSZ stimulation and measured after 16 hrs by celltiter-glo luminescent cell viability assay
Assay type: functional, cell-based
# pEC50 per entry
// returns pEC50 (minus log10 of molar concentration), number only

Known pEC50 results, listed for orientation:
compound="O=C(Cc1cccc(OC(F)(F)F)c1)Nc1cc(Oc2cc3nc(NC(=O)C4CC4F)sc3cc2F)ccc1F (centres undefined)" measurement_name=pEC50 obs_value=8.00
compound=O=C1CC(C(=O)Nc2nc3cc(Oc4ccc(F)c(NC(=O)Cc5cccc(OC(F)(F)F)c5)c4)c(F)cc3s2)C1 measurement_name=pEC50 obs_value=8.70
compound="CC1(C)CC1C(=O)Nc1nc2cc(Oc3ccc(F)c(NC(=O)Cc4cccc(OC(F)(F)F)c4)c3)c(F)cc2s1 (centres undefined)" measurement_name=pEC50 obs_value=7.92

Query compound follows.
Tell me its pEC50 given `O=C1CCC(C(=O)Nc2nc3cc(Oc4ccc(F)c(NC(=O)Cc5cccc(OC(F)(F)F)c5)c4)c(F)cc3s2)CC1` as the entry.
8.00

###

# EC50 per entry
System: HT-29
experimental_details: Anti-necroptotic activity in TSZ induced human HT-29 cells assessed as increase in cell viability pretreated with compound followed by TSZ stimulation and measured after 16 hrs by celltiter-glo luminescent cell viability assay
Type: functional, cell-based
Just the number in nM, nothing appended.

molecule=O=C(Cc1cccc(C(F)(F)F)c1)Nc1cc(Oc2cc3nc(NC(=O)C4CC4)sc3cc2F)ccc1F obs_value=170

Tell me its EC50 given O=C1CCC(C(=O)Nc2nc3cc(Oc4ccc(F)c(NC(=O)Cc5cccc(OC(F)(F)F)c5)c4)c(F)cc3s2)C1 (centres undefined) as the entry.
8

Tell me its EC50 given `O=C(Cc1cccc(OC(F)(F)F)c1)Nc1cc(Oc2cc3nc(NC(=O)C4CC4)sc3cc2F)ccc1F` as the entry.
82

Tell me its EC50 given O=C(Cc1cccc(OC(F)(F)F)c1)Nc1cc(Oc2cc3nc(NC(=O)C4CCOC4)sc3cc2F)ccc1F (centres undefined) as the entry.
13
